- ASSAY_METHOD_TEXT: Inhibition of HCV J4 genotype 1b recombinant His-tagged NS5B truncated at 21 C-terminal expressed in Escherichia coli C41 (DE3) assessed as synthesis of […]
- Set-up: species or system Hepatitis C virus isolate HC-J4
QUANTITY_KIND: IC50 (nM)

1. O=C1/C(=C/c2ccc(-c3cccc(/C=C4\Oc5cc(O)cc(O)c5C4=O)c3)cc2)Oc2cc(O)cc(O)c21 ... 3100

[a] O=C1/C(=C/c2cccc(/C=C3\Oc4cc(O)cc(O)c4C3=O)c2)Oc2cc(O)cc(O)c21
[b] O=C1/C(=C/c2ccc(OCC(COc3ccc(/C=C4\Oc5cc(O)cc(O)c5C4=O)cc3)C3CCCC3)cc2)Oc2cc(O)cc(O)c21 (stereo not given)
Consider entries a and b . Which has the numerically lower IC50? Output the label that corresponds to your choice.
b

###

- ASSAY_METHOD_TEXT: Inhibition of HCV J4 genotype 1b recombinant His-tagged NS5B truncated at 21 C-terminal expressed in Escherichia coli C41 (DE3) assessed as synthesis of […]
- Set-up: species or system Hepatitis C virus isolate HC-J4
pIC50: −log10 of the molar value.
QUANTITY_KIND: pIC50

Study these solved cases before continuing.
1) O=C1/C(=C/c2ccc(OCCCOc3ccc(/C=C4\Oc5cc(O)cc(O)c5C4=O)cc3)cc2)Oc2cc(O)cc(O)c21 ... 5.82
2) O=C1/C(=C/c2ccc(OCC(COc3ccc(/C=C4\Oc5cc(O)cc(O)c5C4=O)cc3)CC3CCCCC3)cc2)Oc2cc(O)cc(O)c21 (configuration not stated) ... 5.74
3) O=C1/C(=C/c2ccc(/C=C3\Oc4cc(O)cc(O)c4C3=O)cc2)Oc2cc(O)cc(O)c21 ... 5.89
4) CC(C)CC(COc1ccc(/C=C2\Oc3cc(O)cc(O)c3C2=O)cc1)COc1ccc(/C=C2\Oc3cc(O)cc(O)c3C2=O)cc1 ... 5.72
5) O=C1/C(=C/c2ccc(-c3ccccc3/C=C3\Oc4cc(O)cc(O)c4C3=O)cc2)Oc2cc(O)cc(O)c21 ... 5.22

[P] COc1c(-c2ccc3cc(NS(C)(=O)=O)ccc3c2)cc(-n2ccc(=O)[nH]c2=O)cc1C(C)(C)C
[Q] O=C1/C(=C/c2ccc(OCC(COc3ccc(/C=C4\Oc5cc(O)cc(O)c5C4=O)cc3)C3CCCCC3)cc2)Oc2cc(O)cc(O)c21 (configuration not stated)
Hi, I'm comparing P with Q and wondering which one has the bigger number for pIC50. Any idea? Give the label of your selection.
P
(P: 6.22, Q: 5.70)
